Test system: Rattus norvegicus
Experiment: Hypolipidemic activity was measured as reduction in rat serum triglyceride after oral administration in male Wistar rats at 10 mg / (kg day)
Format: functional
Can you tell me Reduction for the items I'm about to list?
Give bare numbers, in %.

[
  {
    "compound": "Cc1cnsc1C(c1ccc(C(C)C)cc1)N1CCNCC1 (stereo not given)",
    "Reduction / %": 48
  },
  {
    "compound": "Cc1cnsc1C(c1ccc(C(C)C)cc1)N1CCN(CCCO)CC1 (stereo not given)",
    "Reduction / %": 48
  },
  {
    "compound": "Cc1cc(C(c2ccc(C(C)C)cc2)N2CCNCC2)sn1 (stereo in doubt; 66)",
    "Reduction / %": 4
  },
  {
    "compound": "Cc1noc(C)c1C(=C1CCN(C)CC1)c1ccc(C(C)C)cc1",
    "Reduction / %": 78
  }
]

Now turn to the next compound.
# Reduction lookup, item CN1CCN(C(c2ccns2)c2ccccc2Cl)CC1 (stereo not given)
12

Recorded values, source ChEMBL document CHEMBL1122607.
